experiment: Pharmacokinetics of Compound 4 in mice (IV and PO); format: in vivo, BALB/c nude female mice; settings: female, BALB/c nude, mouse, plasma, intravenous, 2 mg/kg, 2 mg/kg IV, 0.5 hr, G2; read-out: Plasma concentration G2
measurement name: concentration at 0.5 hr

Query (molecule): `NCCCOc1cc2ccccc2cc1C(=O)NCCCOc1cc2ccccc2cc1C(=O)Nc1ccc(Cl)cc1O` ; field requested: concentration at 0.5 hr 966 ng/mL

###

assay: Pharmacokinetics of Compound 4 in mice (IV and PO); assay type: in vivo, BALB/c nude female mice; settings: female, BALB/c nude, mouse, plasma, intravenous, 2 mg/kg, 2 mg/kg IV, 1 hr, G3; read-out: Plasma concentration G3
measurement name: concentration at 1 hr

Bench note: what concentration at 1 hr did NCCCOc1cc2ccccc2cc1C(=O)NCCCOc1cc2ccccc2cc1C(=O)Nc1ccc(Cl)cc1O [Compound 4] show? 419 ng/mL
